# Target entity: T1, TGFβ3 (R&D Systems)
# T1 sequence (P10600 301-412, species assumed, looked up): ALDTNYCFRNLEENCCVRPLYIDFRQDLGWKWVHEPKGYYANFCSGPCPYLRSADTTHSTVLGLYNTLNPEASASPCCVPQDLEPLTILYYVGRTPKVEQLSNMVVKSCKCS
# Test protocol: SPR (Biacore T200), TGFβ amine-coupled to chip, 1:1 fit
Recorded metric: Kd (nM)
The response must be a number in nM with no trailing unit.

Binder	Kd, nM
Felinized anti-TGFβ1,2,3 antibody VH3.2 - VL7 (antibody, V domains shown) VH: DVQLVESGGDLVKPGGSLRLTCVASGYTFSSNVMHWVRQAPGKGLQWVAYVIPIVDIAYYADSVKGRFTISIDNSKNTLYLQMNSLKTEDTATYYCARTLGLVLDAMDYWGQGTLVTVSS VL: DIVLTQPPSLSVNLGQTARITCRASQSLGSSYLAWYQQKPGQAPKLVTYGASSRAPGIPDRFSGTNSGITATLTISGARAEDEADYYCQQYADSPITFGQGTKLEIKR	0.434
Caninized anti-TGFβ1,2,3 antibody VH4.11 - VL2 (antibody, V domains shown) VH: QVQLVQSGAEVKKPGSSVKVSCKASGYTFSSNVISWVRQAPGKGLQWVGGVIPIVDIANYAQRFKGRVTLTADTSTNTVYMELSNLRTEDTAVYYCARTLGLVLDAMDYWGQGTLVTVSS VL: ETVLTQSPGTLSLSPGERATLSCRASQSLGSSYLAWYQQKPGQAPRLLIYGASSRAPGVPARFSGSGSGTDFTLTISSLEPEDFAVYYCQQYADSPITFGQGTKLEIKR	2.1
Felinized anti-TGFβ1,2,3 antibody VH2.1 - VL3 (antibody, V domains shown) VH: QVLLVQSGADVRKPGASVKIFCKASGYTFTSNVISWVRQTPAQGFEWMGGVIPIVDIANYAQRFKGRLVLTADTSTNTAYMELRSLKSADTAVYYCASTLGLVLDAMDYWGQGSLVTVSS VL: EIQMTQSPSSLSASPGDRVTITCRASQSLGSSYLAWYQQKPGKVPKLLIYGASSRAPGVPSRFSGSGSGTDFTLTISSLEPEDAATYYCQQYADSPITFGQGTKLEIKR	2.6
Caninized anti-TGFβ1,2,3 antibody VH4.5 - VL2 (ZTS-207) (antibody, V domains shown) VH: EVQLVESGGDLVKPAGSLRLSCVASGYTFSSNVMSWVRQAPGKGLQWVGYVIPIVDIANYADAVKGRFTISRDNAKNTLYLQMNSLRVEDTAVYYCTRTLGLVLDAMDYWGQGTLVTVSS VL: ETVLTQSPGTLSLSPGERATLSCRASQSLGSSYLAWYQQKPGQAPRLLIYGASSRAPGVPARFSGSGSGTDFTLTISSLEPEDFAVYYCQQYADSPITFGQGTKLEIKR	0.43

Now consider a different binder.
Query (binder): Felinized anti-TGFβ1,2,3 antibody VH6.1 - VL3 (antibody, V domains shown) VH: QVLLVQSGAEVRTPGASVKIFCKASGYGFTSNVISWVRQSPAQGLEWMGGVIPIVDIANYAQRFKGRLTLTADTSTDTAYMELSSLRSADTAMYYCASTLGLVLDAMDYWGQGTLVTVSS VL: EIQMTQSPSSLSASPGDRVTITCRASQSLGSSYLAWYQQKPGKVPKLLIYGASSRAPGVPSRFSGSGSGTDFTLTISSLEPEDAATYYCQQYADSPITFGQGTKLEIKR ; field requested: Kd
3.57
